Test system: Alternaria solani
test.summary: Test G: tomato early blight, test suspension sprayed on seedlings, disease rating;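 also: 200 ppm unless marked * meaning 40 ppm or ** meaning 10 ppm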
Assay type: in vivo
run.conditions: 40 ppm test suspension (*)
Marks after values point to notes of the source that are not given here.
Catalogue of Test G disease control rating readings, one per entry.

Below are worked cases with known answers.
>>> endpoint_value("CC(CN(C)C)Nc1nccc(-c2c(-c3ccc(F)cc3)nn3c2CCCC3)n1 (stereo not shown)")
"0* %"
>>> endpoint_value("CC(CO)Nc1nccc(-c2c(-c3ccc(F)cc3)nn3c2CCCC3)n1.Cl (stereo not shown)")
"98* %"
>>> endpoint_value("CC(C)Nc1nccc(-c2c(-c3ccc(F)cc3)nn3c2CNCC3)n1.Cl")
"0* %"

Consider now this further compound.
Prompt line: Entry "Cc1ccc(CNc2nccc(-c3c(-c4ccc(F)cc4)nn4c3CCCC4)n2)o1" needs its Test G disease control rating filled in; supply it.
Response line: 0* %

###

Test system: Colletotrichum orbiculare
test.summary: Test F: cucumber Colletotrichum anthracnose, test suspension sprayed on cucumber seedlings, disease rating
Type: in vivo
run.conditions: 200 ppm test suspension
Under this convention, Criterion met denotes Test F disease control rating strictly below 90% and Criterion not met denotes Test F disease control rating at or above 90%.

Prompt line: is_below(Test F disease control rating, 90%) for "CC(C)Nc1nccc(-c2c(-c3ccc(F)cc3)nn3c2COCC3)n1.Cl" ?
Response line: Criterion not met

Prompt line: is_below(Test F disease control rating, 90%) for "Nc1nccc(-c2c(-c3ccc(F)cc3)nn3c2CCCC3)n1" ?
Response line: Criterion met

Prompt line: is_below(Test F disease control rating, 90%) for "CNc1nccc(-c2c(-c3ccc(F)cc3)nn3c2CCCC3)n1" ?
Response line: Criterion met

Prompt line: is_below(Test F disease control rating, 90%) for CCC(C)Nc1nccc(-c2c(-c3ccc(F)cc3F)nn3c2CCC3)n1 (stereo not drawn) ?
Response line: Criterion met

Prompt line: is_below(Test F disease control rating, 90%) for "Fc1ccc(-c2nn3c(c2-c2ccnc(NCc4ccco4)n2)CCCC3)cc1" ?
Response line: Criterion met

Prompt line: is_below(Test F disease control rating, 90%) for "CCNc1nccc(-c2c(-c3ccc(F)cc3)nn3c2CCCC3)n1" ?
Response line: Criterion not met

Prompt line: is_below(Test F disease control rating, 90%) for CCC(C)Nc1nccc(-c2c(-c3ccc(F)cc3)nn3c2CCCC3)n1 (stereo not drawn) [compound 2] ?
Response line: Criterion met

###

System: Puccinia recondite f sp. tritici
test.summary: Test B: wheat leaf rust, test suspension sprayed on wheat seedlings, disease rating;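 also: 200 ppm unless marked * meaning 40 ppm or ** meaning 10 ppm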
Type: in vivo
run.conditions: 200 ppm test suspension
property.measured: Test B disease control rating
Please state the value followed by its unit.

Below are worked cases with known answers.
>>> endpoint_value("c1cc(-c2c(-c3ccsc3)nn3c2CCCC3)nc(NC2CC2)n1 [compound 61]")
"94%"
>>> endpoint_value("COc1ccc(-c2nn3c(c2-c2ccnc(NC4CC4)n2)CCC3)cc1")
"0%"
>>> endpoint_value("Fc1ccc(-c2nn3c(c2-c2ccnc(NC4CCCC4)n2)CCCC3)cc1")
"99%"

Prompt line: Entry CCC(C)Nc1nccc(-c2c(-c3ccc(F)cc3)nn3c2CCCC3)n1 (stereo not drawn) [compound 2] needs its Test B disease control rating filled in; supply it.
Response line: 98%

Prompt line: Entry "Cc1cc(-c2nn3c(c2-c2ccnc(NC(C)C)n2)COCC3)ccc1F" needs its Test B disease control rating filled in; supply it.
Response line: 90%

Prompt line: Entry "Fc1ccc(-c2nn3c(c2-c2ccnc(N4CCC4)n2)CCCC3)cc1" needs its Test B disease control rating filled in; supply it.
Response line: 91%

Prompt line: Entry "CC(C)CNc1nccc(-c2c(-c3ccc(F)cc3)nn3c2CCCC3)n1" needs its Test B disease control rating filled in; supply it.
Response line: 95%

Prompt line: Entry CC(CO)Nc1nccc(-c2c(-c3ccc(F)cc3)nn3c2CSCC3)n1 (stereo not drawn) needs its Test B disease control rating filled in; supply it.
Response line: 95%

Prompt line: Entry "C[C@@H](CO)Nc1nccc(-c2c(-c3ccc(F)cc3)nn3c2CCCC3)n1" needs its Test B disease control rating filled in; supply it.
Response line: 99%
